Kindly supply the reported IC50 values for the records listed here.
target: human ROCKα/ROCKII mix (Homo sapiens); construct: purchased Upstate Biotechnology 14-451; assay: ROCK inhibition, fluorescence polarization (FP) assay with ROCK IMAP Kit; assay type: biochemical; details: Table 4, compounds 132 to 156
Sequence (O75116 whole entry): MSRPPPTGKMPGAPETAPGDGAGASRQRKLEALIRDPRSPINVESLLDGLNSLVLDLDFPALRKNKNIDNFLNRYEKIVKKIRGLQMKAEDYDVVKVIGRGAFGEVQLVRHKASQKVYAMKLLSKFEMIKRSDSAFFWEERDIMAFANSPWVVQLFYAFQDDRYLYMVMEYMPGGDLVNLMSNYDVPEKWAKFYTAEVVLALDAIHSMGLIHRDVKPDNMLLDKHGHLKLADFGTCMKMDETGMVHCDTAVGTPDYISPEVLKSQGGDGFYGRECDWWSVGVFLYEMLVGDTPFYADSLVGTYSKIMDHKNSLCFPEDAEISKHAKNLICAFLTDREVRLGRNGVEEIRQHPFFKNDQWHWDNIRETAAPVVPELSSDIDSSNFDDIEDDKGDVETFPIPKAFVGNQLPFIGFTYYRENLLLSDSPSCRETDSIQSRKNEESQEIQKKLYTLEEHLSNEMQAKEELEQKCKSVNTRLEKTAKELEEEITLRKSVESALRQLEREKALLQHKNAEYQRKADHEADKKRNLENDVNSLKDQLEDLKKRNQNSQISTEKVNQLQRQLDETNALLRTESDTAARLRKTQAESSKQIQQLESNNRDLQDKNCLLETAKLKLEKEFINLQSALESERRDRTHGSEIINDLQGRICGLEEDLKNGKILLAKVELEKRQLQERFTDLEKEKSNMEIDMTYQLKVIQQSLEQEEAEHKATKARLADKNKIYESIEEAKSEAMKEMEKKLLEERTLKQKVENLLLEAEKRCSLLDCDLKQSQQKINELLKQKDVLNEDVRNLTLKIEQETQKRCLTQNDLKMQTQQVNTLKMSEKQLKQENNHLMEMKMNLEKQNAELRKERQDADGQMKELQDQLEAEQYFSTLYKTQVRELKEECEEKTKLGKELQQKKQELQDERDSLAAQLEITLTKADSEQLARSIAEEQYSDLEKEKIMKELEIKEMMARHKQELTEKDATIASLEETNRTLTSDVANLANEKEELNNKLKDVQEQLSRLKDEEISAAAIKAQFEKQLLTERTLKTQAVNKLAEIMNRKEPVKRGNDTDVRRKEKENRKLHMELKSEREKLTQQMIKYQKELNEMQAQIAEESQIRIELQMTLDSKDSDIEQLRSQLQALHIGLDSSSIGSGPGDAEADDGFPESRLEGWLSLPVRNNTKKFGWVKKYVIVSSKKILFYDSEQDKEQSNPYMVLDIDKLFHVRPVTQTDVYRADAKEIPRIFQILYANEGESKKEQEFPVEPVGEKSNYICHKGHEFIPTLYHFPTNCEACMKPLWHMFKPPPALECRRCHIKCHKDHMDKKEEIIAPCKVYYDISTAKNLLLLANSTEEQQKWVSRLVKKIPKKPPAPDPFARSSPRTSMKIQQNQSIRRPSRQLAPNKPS

**Query** Using the record for COc1ccc(S(=O)(=O)N(C)CC(N)c2ccc(C(=O)Nc3ccncc3)cc2)cc1 (centres unmarked) , report its IC50.
**Result** < 0.5 µM

**Query** Using the record for CN(CC(N)c1ccc(C(=O)Nc2ccncc2)cc1)S(=O)(=O)c1ccc(Cl)cc1 (centres unmarked) , report its IC50.
**Result** 0.5 to 5 µM

**Query** Using the record for NC(c1ccc(C(=O)Nc2ccncc2)cc1)C1CCCN1S(=O)(=O)c1ccccc1Cl (centres unmarked) , report its IC50.
**Result** 0.5 to 5 µM

**Query** Using the record for CN(CC(N)c1ccc(C(=O)Nc2ccncc2)cc1)S(=O)(=O)c1ccccc1 (centres unmarked) , report its IC50.
**Result** 0.5 to 5 µM

**Query** Using the record for `N[C@@H](CC(=O)N1CCC[C@@H]1c1cccc(F)c1)c1ccc(C(=O)Nc2ccncc2)cc1` , report its IC50.
**Result** < 0.5 µM

**Query** Using the record for NC(c1ccc(C(=O)Nc2ccncc2)cc1)C1CCCN1S(=O)(=O)c1ccc(Cl)cc1 (centres unmarked) , report its IC50.
**Result** 0.5 to 5 µM

**Query** Using the record for CN(CC(N)c1ccc(C(=O)Nc2ccncc2)cc1)S(=O)(=O)c1ccccc1Cl (centres unmarked) , report its IC50.
**Result** 0.5 to 5 µM

**Query** Using the record for CN(CC(N)c1ccc(C(=O)Nc2ccncc2)cc1)S(=O)(=O)c1ccc(F)cc1 (centres unmarked) , report its IC50.
**Result** 0.5 to 5 µM

**Query** Using the record for `COc1ccc(S(=O)(=O)N(C)C[C@H](N)c2ccc(C(=O)Nc3ccncc3)cc2)cc1` , report its IC50.
**Result** 5 to 50 µM

**Query** Using the record for NC(c1ccc(C(=O)Nc2ccncc2)cc1)C1CCCN1S(=O)(=O)c1cccc(F)c1 (centres unmarked) , report its IC50.
**Result** 0.5 to 5 µM

**Query** Using the record for `N[C@H](CC(=O)N1CCC[C@@H]1c1cccc(F)c1)c1ccc(C(=O)Nc2ccncc2)cc1` , report its IC50.
**Result** < 0.5 µM

**Query** Using the record for `N[C@H](C(=O)NCc1ccccc1)c1ccc(C(=O)Nc2ccncc2)cc1` , report its IC50.
**Result** < 0.5 µM

**Query** Using the record for CN(CC(N)c1ccc(C(=O)Nc2ccncc2)cc1)S(=O)(=O)c1cccc(Cl)c1 (centres unmarked) , report its IC50.
**Result** 0.5 to 5 µM

**Query** Using the record for NC(c1ccc(C(=O)Nc2ccncc2)cc1)C1CCCN1S(=O)(=O)c1ccc(F)cc1 (centres unmarked) , report its IC50.
**Result** 0.5 to 5 µM

----------
biological target: human ROCKα/ROCKII mix (Homo sapiens); construct: purchased Upstate Biotechnology 14-451; test: ROCK inhibition, fluorescence polarization (FP) assay with ROCK IMAP Kit; type: biochemical; conditions: Table 1, compounds of Formula IV20
measure name: IC50

**Query** Using the record for NC(C(=O)NCC1CC1)c1ccc(C(=O)Nc2ccncc2)cc1 (stereo not drawn) , report its IC50.
**Result** 0.5 to 5 µM

**Query** Using the record for NC(C(=O)NCc1cccc(Cl)c1)c1ccc(C(=O)Nc2ccncc2)cc1 (stereo not drawn) , report its IC50.
**Result** < 0.5 µM

**Query** Using the record for CC1CCC(NC(=O)C(N)c2ccc(C(=O)Nc3ccncc3)cc2)CC1 (stereo not drawn) , report its IC50.
**Result** 0.5 to 5 µM

**Query** Using the record for CCCCNNC(=O)C(N)c1ccc(C(=O)Nc2ccncc2)cc1 (stereo not drawn) , report its IC50.
**Result** < 0.5 µM

**Query** Using the record for CCC(C)(C)NC(=O)C(N)c1ccc(C(=O)Nc2ccncc2)cc1 (stereo not drawn) , report its IC50.
**Result** 0.5 to 5 µM

**Query** Using the record for CC1CN(C(=O)C(N)c2ccc(C(=O)Nc3ccncc3)cc2)CC(C)O1 (stereo not drawn) , report its IC50.
**Result** 0.5 to 5 µM

**Query** Using the record for NC(C(=O)N1CCC(O)(c2ccccc2)CC1)c1ccc(C(=O)Nc2ccncc2)cc1 (stereo not drawn) , report its IC50.
**Result** 0.5 to 5 µM

**Query** Using the record for NC(C(=O)N1CCN(CCO)CC1)c1ccc(C(=O)Nc2ccncc2)cc1 (stereo not drawn) , report its IC50.
**Result** 0.5 to 5 µM

**Query** Using the record for NC(C(=O)NCc1ccncc1)c1ccc(C(=O)Nc2ccncc2)cc1 (stereo not drawn) , report its IC50.
**Result** 0.5 to 5 µM

**Query** Using the record for CCC(NC(=O)C(N)c1ccc(C(=O)Nc2ccncc2)cc1)c1ccccc1 (stereo not drawn) , report its IC50.
**Result** < 0.5 µM

**Query** Using the record for NC(C(=O)NCc1ccccc1)c1ccc(C(=O)Nc2ccncc2)cc1 (stereo not drawn) , report its IC50.
**Result** < 0.5 µM

**Query** Using the record for NC(C(=O)N1CCN(Cc2ccc(F)cc2)CC1)c1ccc(C(=O)Nc2ccncc2)cc1 (stereo not drawn) , report its IC50.
**Result** 0.5 to 5 µM

**Query** Using the record for NC(C(=O)N1CCN(c2ccccc2)CC1)c1ccc(C(=O)Nc2ccncc2)cc1 (stereo not drawn) , report its IC50.
**Result** 0.5 to 5 µM

**Query** Using the record for NC(C(=O)Nc1ccccc1)c1ccc(C(=O)Nc2ccncc2)cc1 (stereo not drawn) , report its IC50.
**Result** 0.5 to 5 µM

**Query** Using the record for COCCNC(=O)C(N)c1ccc(C(=O)Nc2ccncc2)cc1 (stereo not drawn) , report its IC50.
**Result** 0.5 to 5 µM

**Query** Using the record for NC(C(=O)NCCc1cccs1)c1ccc(C(=O)Nc2ccncc2)cc1 (stereo not drawn) , report its IC50.
**Result** < 0.5 µM

**Query** Using the record for CC[C@H](NC(=O)C(N)c1ccc(C(=O)Nc2ccncc2)cc1)c1ccccc1 (stereo partly drawn) , report its IC50.
**Result** 0.5 to 5 µM

**Query** Using the record for CC(C)N1CCN(C(=O)C(N)c2ccc(C(=O)Nc3ccncc3)cc2)CC1 (stereo not drawn) , report its IC50.
**Result** 0.5 to 5 µM

**Query** Using the record for CN(CCO)C(=O)C(N)c1ccc(C(=O)Nc2ccncc2)cc1 (stereo not drawn) , report its IC50.
**Result** 0.5 to 5 µM

**Query** Using the record for NC(C(=O)NC1CCCCC1)c1ccc(C(=O)Nc2ccncc2)cc1 (stereo not drawn) , report its IC50.
**Result** 0.5 to 5 µM

**Query** Using the record for COc1ccc(CNC(=O)C(N)c2ccc(C(=O)Nc3ccncc3)cc2)cc1 (stereo not drawn) , report its IC50.
**Result** < 0.5 µM

**Query** Using the record for NC(C(=O)NCc1ccco1)c1ccc(C(=O)Nc2ccncc2)cc1 (stereo not drawn) , report its IC50.
**Result** < 0.5 µM

**Query** Using the record for NC(C(=O)N1CC=C(c2ccc(F)cc2)CC1)c1ccc(C(=O)Nc2ccncc2)cc1 (stereo not drawn) , report its IC50.
**Result** 0.5 to 5 µM

**Query** Using the record for NC(C(=O)NCc1ccccn1)c1ccc(C(=O)Nc2ccncc2)cc1 (stereo not drawn) , report its IC50.
**Result** 0.5 to 5 µM

**Query** Using the record for CCNC(=O)C(N)c1ccc(C(=O)Nc2ccncc2)cc1 (stereo not drawn) , report its IC50.
**Result** 0.5 to 5 µM

**Query** Using the record for COc1ccc(NC(=O)C(N)c2ccc(C(=O)Nc3ccncc3)cc2)cc1 (stereo not drawn) , report its IC50.
**Result** < 0.5 µM

**Query** Using the record for CN(C)CCNC(=O)C(N)c1ccc(C(=O)Nc2ccncc2)cc1 (stereo not drawn) , report its IC50.
**Result** 0.5 to 5 µM
